Target: DNA dC->dU-editing enzyme APOBEC-3G (Homo sapiens)
Assay: qHTS for inhibitors of Vif-A3G interactions: Cherry picks counterscreen;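 also: potency is read from the fitted curve at half-maximal effect; hits raise yellow fluorescence by blocking Vif-driven A3G-eYFP degradation; nearly all actives have a fitted effect of over 70% in size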
Details: HeLa A3G-eYFP + Vif (tagged APOBEC3G with the HIV-1 protein that degrades it), eYFP fluorescence, 24 h
Text: The recent discovery and characterization of host restriction factors, which provide a potent defense to invading retroviruses, has provided new targets for antiviral drug development. […] In the presence of an inhibitor, it is expected that Vif will be unable to degrade A3G-eYFP and/or A3F-eYFP, resulting in an increase in yellow fluorescence. […]
Out of some 2,100 compounds screened, about 1,100 (52%) were called active. Roughly 27% stayed inconclusive and do not appear here. The set was probably picked from earlier hits. This is one part of the list.
observed property: Potency

Ask: I have this molecule here, O=C(NCc1cc(C(F)(F)F)ccc1Cl)c1cccc2c1C(=O)c1ccc(N3CCC(Cc4ccccc4)CC3)cc1S2(=O)=O , and I need its recorded Potency.
Reply: 14 µM (active)

Ask: Which value of Potency has been reported for Cc1ccc(N2C(=O)c3cccc4c(N5CCN(C)CC5)ccc(c34)C2=O)c2cccnc12 in the records?
Reply: 15.8 µM (active)

Ask: I'd like to know its Potency. The molecule in question is COc1ccc(C(=O)Nc2cc(C(C)=O)c(/C=C/N(C)C)oc2=O)cc1
Reply: 9.94 µM (active)

Ask: Any idea what Potency was measured for CCCCCCCNc1ccc(/C=C/c2ccnc3ccccc23)cc1 ?
Reply: 11.6 µM (active)

Ask: Quick one: Potency for Cc1noc(C)c1COc1ccc(C(=O)NNC(=O)c2ccccc2F)cc1 ?
Reply: 8.86 µM (active)

Ask: Param item = c1ccc2c(-c3nc4ccccc4[nH]3)cccc2c1 ; retrieve measured Potency.
Reply: 11.2 µM (active)

Ask: Quick one: Potency for CN(/N=C/c1ccc(N(C)C)cc1)C1=NS(=O)(=O)c2ccccc21 ?
Reply: 5.59 µM (active)

Ask: Consider the molecule COc1ccc(OC)c(S(=O)(=O)N/N=C\c2cn(CC(N)=O)c3ccccc23)c1 and give its measured Potency.
Reply: 15.8 µM (active)

Ask: Record request: Potency value, item COc1cccc(Cn2c(-c3nonc3N)nc3ccccc32)c1
Reply: 1.25 µM (active)

Ask: Could you tell me which Potency is on file for CC(=O)c1cc(NC(=O)c2ccc(Cl)cc2)c(=O)oc1/C=C/N(C)C ?
Reply: 7.04 µM (active)

Ask: Tell me the measured Potency of Cc1ccc2nc(/C(C#N)=C\c3ccc(OC(=O)c4cccs4)cc3)[nH]c2c1 , please.
Reply: 11.2 µM (active)

Ask: What value of measured Potency is listed for O=C1c2cccc3c(N4CCCCC4)ccc(c23)C(=O)N1c1cccc(O)c1 ?
Reply: 2.59 µM (active)

Ask: Requested field: Potency. Item: O=C(c1ccc(CS(=O)c2ccccc2Cl)o1)N1CCN(c2ccccc2F)CC1 (stereo unspecified)
Reply: 2.91 µM (active)

Ask: Fill in the blank: the reported Potency of CC(C)n1cnc2c(NCc3ccccc3)cc(N[C@H](C)CO)cc21 is ____.
Reply: 15.8 µM (active)

Ask: Please report the recorded Potency for CCCCCCNc1ccc(/C=C/c2ccnc3ccccc23)cc1 .
Reply: 18.4 µM (active)

Ask: Can you share its Potency? I mean this molecule: Cc1noc(C)c1COc1ccc(C(=O)NNC(=O)c2ccccc2)cc1
Reply: 5.59 µM (active)

Ask: Quick one: Potency for COc1ccc(C)c(Cn2c(-c3nonc3N)nc3ccccc32)c1 ?
Reply: 3.14 µM (active)

Ask: Looking for the measured Potency of Cc1ccc2nc(/C(C#N)=C\c3ccc([N+](=O)[O-])o3)[nH]c2c1 , can you help?
Reply: 18.4 µM (active)

Ask: Given CC(=O)c1cc(NC(=O)c2ccc(C)cc2)c(=O)oc1/C=C/N(C)C , state its recorded Potency.
Reply: 14.6 µM (active)

Ask: Fill in the blank: the reported Potency of Nc1nonc1-c1nc2ccccc2n1CC(=O)Nc1cccc(C(F)(F)F)c1 is ____.
Reply: 18.4 µM (active)

Ask: Field request: Potency | item: CCC(=O)NC(c1ccc(OC)cc1)c1c(O)ccc2ccccc12 (stereo unspecified)
Reply: 9.94 µM (active)
